- measured-target: recombinant soluble homotrimeric HA of A/duck/Yangzhou/02/05 (H8N4) (Influenza A virus A/duck/Yangzhou/02/2005(H8N4))
- protocol: trimeric HA microarray, transfection supernatant set 2
- condition-parameters: remark: other sources report otherwise
quantity: Trimeric HA Binding: RLU (RLU)
Give the quantity in RLU, number only.

Task: Recorded Trimeric HA Binding: RLU of TCN-522 (3212_I12) (antibody, V domains shown) VH: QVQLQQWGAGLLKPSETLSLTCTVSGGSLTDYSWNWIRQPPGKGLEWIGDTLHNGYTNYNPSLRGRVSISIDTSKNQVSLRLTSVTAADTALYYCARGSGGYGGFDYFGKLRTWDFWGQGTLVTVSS VL: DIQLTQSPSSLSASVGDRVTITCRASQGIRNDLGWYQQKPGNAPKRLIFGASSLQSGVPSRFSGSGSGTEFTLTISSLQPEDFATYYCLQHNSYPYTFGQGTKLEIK , please.
Result: 1650

Task: Recorded Trimeric HA Binding: RLU of TCN-563 (5237_B21) (antibody, V domains shown) VH: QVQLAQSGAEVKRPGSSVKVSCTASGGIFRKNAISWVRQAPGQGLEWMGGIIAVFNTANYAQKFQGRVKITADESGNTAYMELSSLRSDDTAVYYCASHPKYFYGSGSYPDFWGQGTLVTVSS VL: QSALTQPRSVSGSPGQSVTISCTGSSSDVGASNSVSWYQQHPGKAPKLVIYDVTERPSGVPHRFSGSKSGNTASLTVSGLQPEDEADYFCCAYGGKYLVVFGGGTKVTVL , please.
Result: 6280

Further cases:
Task: Recorded Trimeric HA Binding: RLU of TCN-528 (5087_P17) (antibody, V domains shown) VH: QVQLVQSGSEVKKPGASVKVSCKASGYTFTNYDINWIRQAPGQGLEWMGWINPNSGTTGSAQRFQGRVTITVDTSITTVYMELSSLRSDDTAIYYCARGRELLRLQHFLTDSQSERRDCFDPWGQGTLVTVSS VL: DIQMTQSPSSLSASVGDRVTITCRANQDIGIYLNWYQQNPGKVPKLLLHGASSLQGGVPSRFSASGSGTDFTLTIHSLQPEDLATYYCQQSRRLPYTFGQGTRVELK , please.
Result: 19800
